Data origin, for the record: patent US10251395B2

Listing of entries alongside the reported post-emergence efficacy ABUTH.
Tested on: Abutilon theophrasti
Assay: Post-emergence herbicidal effect
Assay type: in vivo
Conditions: 80 g/ha, assessed visually after about 3 weeks vs untreated controls
endpoint: post-emergence efficacy ABUTH (%)

compound="CN=C(C)c1cnc(NC2CCCc3sc(C)cc32)nc1N (stereo not shown) [compound 352]" endpoint="post-emergence efficacy ABUTH" reading_unit=% val=80
compound="Cc1sc2c(c1C)C(Nc1ncc(C(F)(F)F)c(N)n1)CCC2 (stereo not shown) [compound 213]" endpoint="post-emergence efficacy ABUTH" reading_unit=% val=80
compound="CNC(=O)c1cnc(NC2CCCc3sc(C)cc32)nc1N (racemic) [compound 266]" endpoint="post-emergence efficacy ABUTH" reading_unit=% val=80
compound="Cc1cc2c(s1)CCCC2Nc1ncc(C#N)c(N)n1 (stereo not shown) [compound 282]" endpoint="post-emergence efficacy ABUTH" reading_unit=% val=90
compound="Cc1cc2c(s1)CCCC2Nc1ncc(C(F)(F)F)c(N)n1 (racemic) [compound 257]" endpoint="post-emergence efficacy ABUTH" reading_unit=% val=90
compound="Cc1cc2c(s1)CCCC2Nc1ncc(C(F)(F)F)c(N)n1 (racemic) [compound 11]" endpoint="post-emergence efficacy ABUTH" reading_unit=% val=100
compound="Cc1cc2c(s1)C(Nc1ncc(S(C)(=O)=O)c(N)n1)CCC2 (racemic) [compound 19]" endpoint="post-emergence efficacy ABUTH" reading_unit=% val=90
compound="C/C(=N/OCc1ccccc1)c1cnc(NC2CCCc3sc(C)cc32)nc1N (racemic) [compound 291]" endpoint="post-emergence efficacy ABUTH" reading_unit=% val=80
compound="CC(=O)c1cnc(NC2CCCc3sc(C)cc32)nc1N (stereo not shown) [compound 283]" endpoint="post-emergence efficacy ABUTH" reading_unit=% val=90
compound="Cc1cc2c(s1)CCCC2Nc1ncc(C(F)(F)F)c(N)n1 (racemic) [compound 61]" endpoint="post-emergence efficacy ABUTH" reading_unit=% val=90
compound="Cc1cc2c(s1)CCCC2Nc1ncc(-c2cncc(C(F)(F)F)c2)c(N)n1 (racemic) [compound 290]" endpoint="post-emergence efficacy ABUTH" reading_unit=% val=60
compound="CC(=O)c1cnc(NC2CCCc3sc(C)cc32)nc1N (racemic) [compound 150]" endpoint="post-emergence efficacy ABUTH" reading_unit=% val=80
compound="C/C(=N\\O)c1cnc(NC2CCCc3sc(Cl)cc32)nc1C (racemic) [compound 260]" endpoint="post-emergence efficacy ABUTH" reading_unit=% val=80
compound="Cc1cc2c(s1)CCCC2Nc1nc(N)c(S(C)(=O)=O)c(C(F)F)n1 (racemic) [compound 287]" endpoint="post-emergence efficacy ABUTH" reading_unit=% val=80
compound="Nc1nc(NC2CCc3sc(Cl)cc32)ncc1C(F)(F)F (racemic) [compound 256]" endpoint="post-emergence efficacy ABUTH" reading_unit=% val=90
compound="Cc1cc2c(s1)CCC2Nc1ncc(S(C)(=O)=O)c(N)n1 (racemic) [compound 4]" endpoint="post-emergence efficacy ABUTH" reading_unit=% val=80
compound="Cc1cc2c(s1)CCCC2Nc1ncc(S(C)(=O)=O)c(N)n1 (racemic) [compound 59]" endpoint="post-emergence efficacy ABUTH" reading_unit=% val=20
compound="Cc1cc2c(s1)CCCC2Nc1ncc(C(N)=O)c(N)n1 (racemic) [compound 267]" endpoint="post-emergence efficacy ABUTH" reading_unit=% val=80
compound="Cc1cc2c(s1)CCC[C@H]2Nc1ncc(C(F)(F)F)c(N)n1 [compound 47]" endpoint="post-emergence efficacy ABUTH" reading_unit=% val=90
